Source: paper PMC8763920

Assay Details: circular dichroism
Run Conditions: water; pH ns; 25 °C; 70 uM
*1 amine or outer side, *2 acyl side, *3 side chain or, on linkers, in order; H or OH if unused. Where a SMILES comes first, the peptide text is derived from it. Bridges are numbered along the chain shown (N, C = ends). [ ]: non-standard residue; d: D form. X2 = O=C(CSCCCCCCCSCC(=O)[*:2])[*:1]; X4 = O=C(CSCCCCCSCC(=O)[*:2])[*:1]; dDap = NC[C@@H](N)C(=O)O; Dap = NC[C@H](N)C(=O)O
Measured Endpoint: helicity
Answer format: number, then unit.

Use the examples below as a reference point.
- Compound: "CC(=O)N[C@@H](CCC(N)=O)C(=O)N[C@@H](CO)C(=O)N[C@@H](CCC(N)=O)C(=O)N[C@@H](CCC(N)=O)C(=O)N[C@H](C(=O)N[C@@H](Cc1ccccc1)C(=O)N[C@H]1CNC(=O)CSCCCCCCCSCC(=O)NC[C@@H](C(=O)N[C@@H](CCC(N)=O)C(=O)N[C@@H](CC(N)=O)C(N)=O)NC(=O)[C@H](CC(C)C)NC(=O)[C@H](CC(C)C)NC(=O)[C@H](CCCNC(=N)N)NC(=O)[C@H](Cc2c[nH]c3ccccc23)NC(=O)[C@H](CC(C)C)NC(=O)[C@H](CC(N)=O)NC1=O)[C@@H](C)O"
  Observed Measurement: "36%"
- Compound: "CC[C@H](C)[C@@H]1NC(=O)[C@@H](NC(=O)[C@H](CCC(=O)O)NC(=O)[C@@H]2CCCN2C(=O)[C@H](CC(N)=O)NC(=O)[C@H](CCC(=O)O)NC(C)=O)CNC(=O)CSCCCCCCCSCC(=O)NC[C@@H](C(=O)N[C@@H](Cc2c[nH]cn2)C(=O)N[C@H](C(=O)N[C@@H](CCC(N)=O)C(=O)N[C@@H](CCCNC(=N)N)C(=O)N[C@H](C(=O)N[C@@H](CCSC)C(N)=O)C(C)C)C(C)C)NC(=O)[C@H](CC(=O)O)NC(=O)[C@H](CC(C)C)NC1=O (Ac-ENPE[Dap]ILD[Dap]HVQRVM-NH2; linker 5-9 via X2)"
  Observed Measurement: "18%"
- Compound: "CC[C@H](C)[C@@H]1NC(=O)[C@H](NC(=O)[C@H](CCC(=O)O)NC(=O)[C@@H]2CCCN2C(=O)[C@H](CC(N)=O)NC(=O)[C@H](CCC(=O)O)NC(C)=O)CNC(=O)CSCCCCCSCC(=O)NC[C@H](C(=O)N[C@@H](Cc2c[nH]cn2)C(=O)N[C@H](C(=O)N[C@@H](CCC(N)=O)C(=O)N[C@@H](CCCNC(=N)N)C(=O)N[C@H](C(=O)N[C@@H](CCSC)C(N)=O)C(C)C)C(C)C)NC(=O)[C@H](CC(=O)O)NC(=O)[C@H](CC(C)C)NC1=O (Ac-ENPE[dDap]ILD[dDap]HVQRVM-NH2; linker 5-9 via X4)"
  Observed Measurement: "14%"

Switching to the query record.
Give a short answer stating reported helicity for CC[C@H](C)[C@@H]1NC(=O)[C@@H](NC(=O)[C@H](CCC(=O)O)NC(=O)[C@@H]2CCCN2C(=O)[C@H](CC(N)=O)NC(=O)[C@H](CCC(=O)O)NC(C)=O)CNC(=O)CSCc2cccc(c2)CSCC(=O)NC[C@H](C(=O)N[C@@H](Cc2c[nH]cn2)C(=O)N[C@H](C(=O)N[C@@H](CCC(N)=O)C(=O)N[C@@H](CCCNC(=N)N)C(=O)N[C@H](C(=O)N[C@@H](CCSC)C(N)=O)C(C)C)C(C)C)NC(=O)[C@H](CC(=O)O)NC(=O)[C@H](CC(C)C)NC1=O .
44%
